Numbers sourced from patent US20230381333A1.

- Assayed System: human GCG receptor (human, UniProt P47871 26-477)
- Sequence (P47871 26-477): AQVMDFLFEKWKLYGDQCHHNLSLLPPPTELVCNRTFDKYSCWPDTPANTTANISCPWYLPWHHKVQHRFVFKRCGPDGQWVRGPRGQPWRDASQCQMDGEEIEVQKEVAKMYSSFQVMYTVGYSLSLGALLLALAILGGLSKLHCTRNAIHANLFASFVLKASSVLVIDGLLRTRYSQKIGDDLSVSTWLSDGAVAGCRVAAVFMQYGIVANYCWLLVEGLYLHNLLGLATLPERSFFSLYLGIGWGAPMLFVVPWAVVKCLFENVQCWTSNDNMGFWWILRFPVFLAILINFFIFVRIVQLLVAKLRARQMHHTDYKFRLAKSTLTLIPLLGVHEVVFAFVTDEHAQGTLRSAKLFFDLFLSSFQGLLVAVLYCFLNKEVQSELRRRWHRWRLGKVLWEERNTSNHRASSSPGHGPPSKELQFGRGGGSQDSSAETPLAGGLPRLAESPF
- Assay Comment: cell-based or functional assay
Bridge positions count the residues as written; N and C are the ends. Square brackets hold non-standard residues; d marks the D form. Ends that are not written are not given here. * marks the point of attachment. Acetyl(2-(4-imidazolyl)) = O=C(Cc1c[nH]cn1)*; Aib = CC(C)(N)C(=O)O
Property Label: In vitro activity compared to native-type peptide (%), vs Glucagon

[[record]]
binder = "{Acetyl(2-(4-imidazolyl))}-[Aib]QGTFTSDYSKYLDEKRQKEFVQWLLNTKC (bridge 15-19) [triple agonist of SEQ ID NO: 88]"
reported_result = "0.3%"

[[record]]
binder = "H[Aib]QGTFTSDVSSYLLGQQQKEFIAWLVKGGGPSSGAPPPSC [triple agonist of SEQ ID NO: 5]"
reported_result = "< 0.1%"

[[record]]
binder = "{Acetyl(2-(4-imidazolyl))}-[Aib]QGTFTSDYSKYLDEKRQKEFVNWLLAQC (bridge 15-19) [triple agonist of SEQ ID NO: 86]"
reported_result = "0.4%"

[[record]]
binder = "H[Aib]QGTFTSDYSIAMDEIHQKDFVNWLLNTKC (bridge 16-20) [triple agonist of SEQ ID NO: 35]"
reported_result = "< 0.1%"

[[record]]
binder = "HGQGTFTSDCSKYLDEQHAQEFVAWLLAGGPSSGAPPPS [triple agonist of SEQ ID NO: 46]"
reported_result = "< 0.1%"

[[record]]
binder = "H[Aib]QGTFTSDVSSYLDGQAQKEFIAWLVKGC [triple agonist of SEQ ID NO: 2]"
reported_result = "< 0.1%"

